value-type: melting point (°C)
Expressed in °C, but write only the number.

Lookup: Suppose we examine the compound Cc1cc(F)c2[nH]cc(-c3nc(N[C@@H]4CCC[C@@H](NC(=O)c5ccccn5)C4)c(F)cc3C#N)c2c1 (racemic) ; what melting point value has been reported?
Found: 98

Lookup: Try "Cc1nc(C(=O)N[C@@H]2CCC[C@H](Nc3nc(-c4c[nH]c5c(F)cc(F)cc45)ncc3F)C2)no1" next.
Found: 233

Lookup: Ok, now "CN1CCC[C@@H]1C(=O)N[C@@H]1CCC[C@H](Nc2nc(-c3c[nH]c4c(F)cc(Cl)cc34)ncc2F)C1"
Found: 196.5

Lookup: Can you check "Cn1nc(N)cc1C(=O)N[C@@H]1CCC[C@H](Nc2nc(-c3c[nH]c4c(F)cc(Cl)cc34)ncc2F)C1" next?
Found: 267.2

Lookup: Entry to check: "CN(C)c1ccnc(C(=O)N[C@@H]2CCC[C@H](Nc3nc(-c4c[nH]c5c(F)cc(Cl)cc45)ncc3F)C2)c1"
Found: 281.8

Lookup: And "Nc1cccc(C(=O)N[C@@H]2CCC[C@H](Nc3nc(-c4c[nH]c5c(F)cc(F)cc45)ncc3F)C2)n1" ?
Found: 190

Lookup: Cool, now "Cc1cc(F)c2[nH]cc(-c3ncc(F)c(N[C@@H](CC(=O)O)C(C)(C)c4ccccn4)n3)c2c1"
Found: 219

###

Answer each item with its documented melting point.
// units = °C; emit number, no label

Lookup: Give the measured melting point of "O=C(N[C@@H]1CCC[C@H](Nc2nc(-c3c[nH]c4c(F)cc(Cl)cc34)ncc2F)C1)c1c[nH]cn1" .
Found: 245

Lookup: Try this compound too: "Nc1nc(C(=O)N[C@@H]2CCC[C@H](Nc3nc(-c4c[nH]c5c(F)cc(Cl)cc45)ncc3F)C2)cs1"
Found: 184.8

Lookup: Please answer likewise for "Cn1nnnc1C(=O)N[C@@H]1CCC[C@H](Nc2nc(-c3c[nH]c4c(F)cc(F)cc34)ncc2F)C1"
Found: 250.3

Lookup: Same lookup for CN(C)C(=O)C(C)(C)C(CC(=O)O)Nc1nc(-c2c[nH]c3c(F)cc(F)cc23)ncc1F (centres unmarked) , please.
Found: 253

Lookup: // query: "Cn1nncc1C(=O)N[C@@H]1CCC[C@H](Nc2nc(-c3c[nH]c4c(F)cc(Cl)cc34)ncc2F)C1"
Found: 249.6

Lookup: Moving on to "Cc1ocnc1C(=O)N[C@@H]1CCC[C@H](Nc2nc(-c3c[nH]c4c(F)cc(F)cc34)ncc2F)C1"
Found: 266.7

Lookup: Check "O=C(N[C@@H]1CCC[C@H](Nc2nc(-c3c[nH]c4c(F)cc(Cl)cc34)ncc2F)C1)c1cc[nH]n1" too.
Found: 263.3

Lookup: Next: "Cn1cnnc1C(=O)N[C@@H]1CCC[C@H](Nc2nc(-c3c[nH]c4c(F)cc(F)cc34)ncc2F)C1"
Found: 169.8

Lookup: Then this compound: "Nc1n[nH]cc1C(=O)N[C@@H]1CCC[C@H](Nc2nc(-c3c[nH]c4c(F)cc(Cl)cc34)ncc2F)C1"
Found: 133

Lookup: Next entry: "Cc1cc(F)c2[nH]cc(-c3ncc(F)c(N[C@H](CC(=O)O)C(C)(C)C)n3)c2c1"
Found: 132

###

Kindly state melting point for each of the entries shown.
Respond with the bare value in °C.

Lookup: Any idea what its melting point is? The molecule is "Cn1nnc(C(=O)N[C@@H]2CCC[C@H](Nc3nc(-c4c[nH]c5c(F)cc(F)cc45)ncc3F)C2)n1"
Found: 230

Lookup: Then "Cn1cc(C(=O)N[C@@H]2CCC[C@H](Nc3nc(-c4c[nH]c5c(F)cc(Cl)cc45)ncc3F)C2)nn1" ?
Found: 283

Lookup: Note, next up: "O=C(N[C@H]1CCC[C@@H](Nc2nc(-c3c[nH]c4c(F)cc(F)cc34)ncc2F)C1)c1cncs1"
Found: 295.2

Lookup: Repeat with "CC1([C@@H](CC(=O)O)Nc2nc(-c3c[nH]c4c(F)cc(F)cc34)c(C#N)cc2F)CCCC1"
Found: 289.6

Lookup: Proceed to "Cn1ncc(C(=O)N[C@@H]2CCC[C@H](Nc3nc(-c4c[nH]c5c(F)cc(F)cc45)ncc3F)C2)c1N"
Found: 248.7

Lookup: Continue with "Cc1cn(C)nc1C(=O)N[C@@H]1CCC[C@H](Nc2nc(-c3c[nH]c4c(F)cc(F)cc34)ncc2F)C1"
Found: 265.1

###

# method: in vitro
# conditions: dog, TOX MDCK CC50
value-type: CC50 at 3 days

Lookup: // query CC50 at 3 days value for entry "COc1ccnc(C(=O)N[C@@H]2CCC[C@H](Nc3nc(-c4c[nH]c5c(F)cc(F)cc45)ncc3F)C2)c1"
Found: 5.6 µM

Lookup: Follow-up entry: CC(=O)NCc1cc(F)c(N[C@H]2CCC[C@@H](NC(=O)c3cn(C)cn3)C2)nc1-c1c[nH]c2c(F)cc(F)cc12 (racemic)
Found: > 25 µM

Lookup: What do you get for "O=C(N[C@@H]1CCC[C@H](Nc2nc(-c3c[nH]c4c(F)cc(F)cc34)ncc2F)C1)c1csc(C(=O)O)n1" ?
Found: > 22.8 µM

###

# method: in vitro
# conditions: dog, TOX MDCK CC50
Mark 1.0 for CC50 at 3 days under 10 µM, 0.0 if at or over.

Lookup: Below 10 µM on CC50 at 3 days? Entry CC(C)(C)C(CC(=O)O)Nc1nc(-c2c[nH]c3c(F)cc(F)cc23)c(C#N)cc1F (stereo not shown)
Found: 1.0

Lookup: And what about the molecule "Cn1nc(N)cc1C(=O)N[C@@H]1CCC[C@H](Nc2nc(-c3c[nH]c4c(F)cc(Cl)cc34)ncc2F)C1" ?
Found: 0.0

Lookup: Another molecule to check: "Cc1cc(F)c2[nH]cc(-c3ncc(F)c(N[C@@H]4C5CCC(CC5)[C@H]4C(=O)O)n3)c2c1"
Found: 1.0

Lookup: Then what about the molecule Cc1cc(F)c2[nH]cc(-c3ncc(F)c(N[C@@H]4CCC[C@@H](NC(=O)c5nc(C)oc5C)C4)n3)c2c1 (racemic) ?
Found: 0.0

Lookup: Could you do the same for CC(C)(c1cccs1)C(CC(=O)O)Nc1nc(-c2c[nH]c3c(F)cc(F)cc23)c(C#N)cc1F (stereo not shown) , please?
Found: 1.0

Lookup: Another molecule to check: C[C@@H]1CC[C@H](C)N1C(=O)N[C@H]1CCC[C@@H](Nc2nc(-c3c[nH]c4c(F)cc(F)cc34)ncc2F)C1 (relative stereo)
Found: 0.0

###

Please provide measured CC50 at 3 days for the entries that follow.
# method: in vitro
# conditions: dog, TOX MDCK CC50

Lookup: Suppose we examine the compound "Cc1cnc(C(=O)N[C@@H]2CCC[C@H](Nc3nc(-c4c[nH]c5c(F)cc(F)cc45)ncc3F)C2)cn1" ; what CC50 at 3 days value has been reported?
Found: 6.6 µM

Lookup: Please answer likewise for O=C(NC1COCC(Nc2nc(-c3c[nH]c4c(F)cc(F)cc34)ncc2F)C1)c1cnn[nH]1 (stereo not shown)
Found: > 25 µM

Lookup: How about this compound: "O=C(N[C@@H]1CCC[C@H](Nc2nc(-c3c[nH]c4c(F)cc(F)cc34)ncc2F)C1)c1c[nH]nn1"
Found: 9 µM

Lookup: // next record "Cn1nc(N)cc1C(=O)N[C@@H]1CCC[C@H](Nc2nc(-c3c[nH]c4c(F)cc(F)cc34)ncc2F)C1"
Found: > 25 µM

Lookup: Can you check "Cn1nnc(C(=O)N[C@@H]2CCC[C@H](Nc3nc(-c4c[nH]c5c(F)cc(Cl)cc45)ncc3F)C2)n1" next?
Found: > 25 µM

Lookup: Moving on to the next compound: "Cc1cc(F)c2[nH]cc(-c3ncc(F)c(N[C@@H](CC(=O)O)C(C)(C)c4ccccn4)n3)c2c1"
Found: 15.3 µM

Lookup: Check Cn1cnc(C(=O)N[C@@H]2CCC[C@H](Nc3nc(-c4c[nH]c5c(F)cc(F)cc45)ncc3F)C2)c1 (racemic) too.
Found: 11.4 µM

###

# method: in vitro
# conditions: dog, TOX MDCK CC50
value-type: CC50 at 3 days (µM)
Write it as a number; the unit µM goes unstated.

Lookup: Fill blank: measured CC50 at 3 days of the molecule Cc1cc(F)c2[nH]cc(-c3ncc(F)c(N[C@H]4CCC[C@@H](NC(=O)c5cn(C)cn5)C4)n3)c2c1 (racemic) is ____.
Found: 13.1

Lookup: Field entry: "O=C(N[C@@H]1CCC[C@H](Nc2nc(-c3c[nH]c4c(F)cc(Cl)cc34)ncc2F)C1)c1ncc(F)cc1F"
Found: 6.6

Lookup: Cool, now "CC(C)(c1cccs1)[C@H](CC(=O)O)Nc1nc(-c2c[nH]c3c(F)cc(F)cc23)ncc1F"
Found: 2.6

Lookup: Please give the result for "CC(C)(C)[C@H](CC(=O)O)Nc1nc(-c2c[nH]c3c(F)cc(Cl)cc23)ncc1F" too.
Found: 0.4

Lookup: Then what about the molecule "COc1cccc(C(=O)N[C@@H]2CCC[C@H](Nc3nc(-c4c[nH]c5c(F)cc(Cl)cc45)ncc3F)C2)n1" ?
Found: 19.9
